measurement-protocol: qHTS assay for small molecules that induce genotoxicity in human embryonic kidney cells expressing luciferase-tagged ATAD5 - cell viability (AID 651634); note: nearly all actives have a fitted effect of over 25% in size
test-conditions: HEK293T ATAD5-luc cells viability, CellTiter-Fluor, 15.5 h; series mostly up to 83.3 µM
Inconclusive results are not listed. Calls of active or inactive are those of the source. Calls come from the whole dose curve.
Pick from active, inactive when you respond.

What was the test verdict on `[Cl][In]([Cl])[Cl]` ?
inactive

# outcome recorded in this test, key = `Nc1cc(Cl)c(-c2cc(Cl)c(N)cc2Cl)cc1Cl`
active

# outcome recorded in this test, key = `CCCCN(CCO)CCCC`
inactive

For `CC(=O)O[C@]1(C(C)=O)CC[C@H]2[C@@H]3C[C@H](C)C4=CC(=O)CC[C@]4(C)[C@H]3CC[C@@]21C` , which call appears in the assay record?
inactive

Could you please tell me the result logged for `C=CC(=O)OCCCCCCOC(=O)C=C` in this assay?
active

Which outcome did this test record for the compound `CCN(CC)c1ccc2c(C)cc(=O)oc2c1` ?
inactive

Please let me know the test result on file for `C=C(C)C(=O)O` .
inactive

Returns: the outcome recorded for `O=Nc1ccc(Nc2ccccc2)cc1` in this assay.
active

***
Name the outcome recorded for `COC(=O)/C=C/c1ccccc1` in the assay.
inactive

Called result for CCN(CC)C(=O)Nc1ccc(OCC(O)CNC(C)(C)C)c(C(C)=O)c1 (stereo unspecified)
inactive

Would you mind telling me which call this test gave CC(COc1ccccc1)N(CCCl)Cc1ccccc1 (stereo unspecified) ?
inactive
